Listing: TGI of selected molecules
Tested on: SK-OV-3 ovarian
Experiment: NCI tumour cell line growth inhibition, 48 h

Consider the following illustrative entries.
- COc1cc2c(cc1OC)C1=C(C=O)c3ccc(OC)c(OC)c3C(O)N1CC2 (stereo unspecified): > 100 µM
- COc1c(OC2OC(CO)C(O)C(O)C2O)cc2c(c1OC)-c1ccc(OC)c(=O)cc1C(NC(C)=O)CC2 (stereo unspecified): > 100 µM
- CN(C)c1cccc2c(S(=O)(=O)NCCN)cccc12: > 100 µM
- Cn1c(CO)ccc1-c1ccc(-c2ccc(CO)[se]2)[se]1: > 100 µM
- O=[N+]([O-])c1cccnc1S(=O)(=O)c1ccccc1: 44.7 µM

Recorded TGI (molecule NCCCNc1nc2ccccc2c2c(=O)c3cc(Cl)ccc3sc12 ): 3.48 µM

Recorded TGI (molecule CC1CC(c2ccccc2)=Nc2ccccc2S1 (stereo unspecified) ): > 100 µM

Recorded TGI (molecule O=C(O)CCCc1ccc2c(c1)C(C(=O)O)CC2 (stereo unspecified) ): > 100 µM

Recorded TGI (molecule COc1ccc(O[C@H](CO)C[C@@H]2COC(C)(C)O2)cc1 ): > 100 µM

Recorded TGI (molecule CCc1c(O)nc(Nc2nc3ccccc3[nH]2)[nH]c1=O ): > 100 µM

Recorded TGI (molecule CC1(C)CCC[C@@]2(C)C1CC[C@@]1(CO)O[C@H](C3=CC(=O)OC3O)C[C@H]12 (stereo partly specified) ): 72.6 µM

Recorded TGI (molecule [N-]=[N+]=CC(=O)C1CCN(c2ccccc2)C1=O (stereo unspecified) ): > 10 µM

Recorded TGI (molecule Cc1cc(OC2OC(CO)C(O)C(O)C2O)ccc1O (stereo unspecified) ): > 100 µM

Recorded TGI (molecule CC(=O)Oc1cc2c(cc1OCC(F)(F)F)[C@H]1CC[C@]3(C)[C@@H](OC(C)=O)CC[C@H]3[C@@H]1CC2=O ): 59.7 µM

Recorded TGI (molecule C[n+]1c2ccccc2n2c3ccccc3c(NCCCn3ccnc3)c(C#N)c21 ): 38.8 µM

Recorded TGI (molecule O=C1Nc2noc(=O)nc2NO1 ): > 200 µM

Recorded TGI (molecule Nc1nc(-c2ccccc2)c(CC(=O)O)s1 ): > 100 µM

###

Test system: ACHN renal
Test: NCI tumour cell line growth inhibition, 48 h
Listing: TGI of selected compounds

Consider the following illustrative entries.
• COC(=O)[C@H](C)NC(=O)[C@H](NS(=O)(=O)c1nc2ccccc2s1)c1ccccc1 = > 100 µM
• N#Cc1c(-c2ccccc2)c(-c2ccccc2)cc2c(=O)c3ccc(Cl)cc3[nH]c12 = > 100 µM
• Cc1ccc(S(=O)(=O)OCCN(CCOS(=O)(=O)c2ccc(C)cc2)c2ccc(C=O)cc2)cc1 = > 100 µM
• CN(C)CCNC(=O)Nc1ccc(N(C)c2ccnc(Nc3ccc(CS(C)(=O)=O)cc3)n2)cc1 = > 25 µM

Recorded TGI (compound NC1=NC(c2ccccc2Cl)c2c(n[nH]c2N)N1 (stereo not given) ): > 100 µM

Recorded TGI (compound O=C1Nc2ccc(-c3cccnc3)cc2/C1=C/c1cc(Br)c(O)c(Br)c1 ): > 25 µM

Recorded TGI (compound CC(C)(NO)/C(=N\O)c1ccccc1 ): > 10 µM

Recorded TGI (compound O=c1[nH]c(=S)[nH]c(O)c1/C=C1\C=Nc2ccccc21 ): 24.3 µM

Recorded TGI (compound Cc1ccc(C(=O)Nc2ccc(Oc3cc4cnn(C)c4cc3-c3cn[nH]c3)c(F)c2)c(=O)n1-c1ccc(F)cc1 ): > 100 µM

Recorded TGI (compound COc1ccc(S(=O)(=O)NC(CCC(=O)NC(N)=O)C(=O)NC(N)=O)cc1 (stereo not given) ): > 100 µM

###

Tested on: NCI-H522 lung
Experiment: NCI tumour cell line growth inhibition, 48 h
property_measured: TGI (µM)
Respond numerically; units are µM and should not be typed.

Consider the following illustrative entries.
* O=C1/C(=C\c2cccc(Oc3ccccc3)c2)SC(c2ccccc2)N1c1cc(Cl)ccc1Cl (stereo not given) | 53
* C/C(=N/NC(=S)Nc1ccc(C)cc1)c1ccccn1 | 12
* COc1cc(C=O)cc(C=Nc2ccc(Br)cc2)c1O | 23.5

Recorded TGI (molecule C/C(CCN(C)C)=N/O ): 2.55

Recorded TGI (molecule CC(C)C(NCc1c2ccccc2[n+](C)c2ccccc12)C(=O)O (stereo not given) ): 3.69

Recorded TGI (molecule N#CC(C(=O)Nc1ccccc1)C1=C(Cl)C(=O)c2ccccc2C1=O (stereo not given) ): 29.3

###

System: A498 renal
Assay: NCI tumour cell line growth inhibition, 48 h; in the data active means GI50 below about 0.43 µM; inactive means the rest
Give one outcome, nothing more. List: active, inactive

- N#CN1CC[C@H](C(=O)Nc2ncc(-c3ccccc3)s2)C1: inactive
- CN(Cc1cnc2nc(N)nc(N)c2n1)c1ccc(C(=O)NC(CCC(=O)O)C(=O)O)c2ccccc12 (stereo unspecified): active
- C[C@]12CCc3nc(Nc4ccc(O)cc4)sc3C1=CC[C@@H]1[C@@H]2CC[C@]2(C)/C(=N/NC(N)=S)CC[C@@H]12: inactive
- O=C(Nc1nc2ccc(S(=O)(=O)Nc3ccc(C4(C(F)(F)F)CC4)cc3)cc2[nH]1)c1cnccn1: inactive
- NC(=O)c1nc(-c2c(F)cccc2Cl)oc1Nc1ccc(C(=O)N2CCOCC2)cc1: inactive

What classification did COC(=O)[C@]12CC[C@@H](C)[C@H](C)[C@@H]1C1=CC[C@@H]3[C@@]4(C)C(C=O)=C[C@@](C)(COS(C)(=O)=O)C4=CC[C@@]3(C)[C@]1(C)CC2 end up with in this test? active

What classification did CCN(CC)CCCC(Nc1c2ccc(Cl)cc2nc2ccc(OC)cc12)c1ccc(Cl)cc1 (stereo unspecified) end up with in this test? inactive

What classification did C/C(=C/CCC(C)[C@@H]1CC[C@]2(C)C3=C(CC[C@@]12C)[C@@]1(C)CCC(=O)C(C)(C)[C@@H]1CC3)C(=O)O (stereo partly specified) end up with in this test? inactive

What classification did O=C(CI)NC(=O)NC(=O)NCc1ccccc1 end up with in this test? inactive

What classification did O=c1[nH]c2ccccc2cc1-c1nnc(Cc2ccccc2)o1 end up with in this test? inactive

What classification did CN(C)CCNC(=O)Nc1ccc(N(C)c2ccnc(Nc3ccc(CS(C)(=O)=O)cc3)n2)cc1 end up with in this test? inactive

###

Listing: TGI of selected compounds
Test system: SR leukemia
Assay: NCI tumour cell line growth inhibition, 48 h

Consider the following illustrative entries.
• C[C@]12CCc3nc(Nc4ccc(O)cc4)sc3C1=CC[C@@H]1[C@@H]2CC[C@]2(C)/C(=N/NC(N)=S)CC[C@@H]12 = > 100 µM
• CC(=O)Nc1cccc(C#Cc2cncnc2Nc2ccc(OCc3cccc(F)c3)c(Cl)c2)c1 = > 25 µM
• OCC1OC(OC2(CO)OC(CO)C(O)C2O)C(O)C(O)C1O (stereo not given) = > 100 µM
• COc1ccc(S(=O)(=O)NC(CCC(=O)NC(N)=O)C(=O)NC(N)=O)cc1 (stereo not given) = > 100 µM
• NC(=O)c1nc(-c2c(F)cccc2Cl)oc1Nc1ccc(C(=O)N2CCOCC2)cc1 = 84.7 µM
• CC(C)N(C(=O)C12C3C4C1C1C4(C#N)C3C12C(=O)O)C(C)C (stereo not given) = 41.4 µM
• O=C(CI)NC(=O)NC(=O)NCc1ccccc1 = 3.1 µM
• Oc1cn(-c2ccc(Cl)cc2)nc1-c1n[nH]c(=S)n1-c1ccc(F)cc1 = > 100 µM
• Cc1nc2ccncc2[nH]1 = > 100 µM

Recorded TGI (compound CC(=O)OC12c3ccccc3C(c3ccccc31)C1C(=O)N(N=C(C)C)C(=O)C12 (stereo not given) ): > 100 µM

###

Listing: TGI of selected compounds
System: MCF7 breast
Assay: NCI tumour cell line growth inhibition, 48 h
Respond numerically; units are µM and should not be typed.

Recorded TGI (compound CCNC(=S)N/N=C(/C)c1cccc(/C(C)=N\NC(=S)NCC)n1 ): 31.2

Recorded TGI (compound OCCN1CCN(c2nc(N3CCCC3)c3nc(Cl)c(NCc4ccccc4)nc3n2)CC1 ): 17.2

Recorded TGI (compound O=C(/C=C/c1ccccc1)c1cc(CN2CCOCC2)c(O)c(CN2CCOCC2)c1 ): 32.4

Recorded TGI (compound CCCCCCC(=O)OC[n+]1ccc2c(C)c3[nH]c4ccc(OC)cc4c3c(C)c2c1 ): 1.75

Recorded TGI (compound O=C(CI)NC(=O)NC(=O)NCc1ccccc1 ): 8.59

Recorded TGI (compound CC(C)CNP(=O)(NCC(C)C)Oc1ccc(CC(NC(=O)OCc2ccccc2)C(=O)OCc2ccccc2)cc1 (stereo not given) ): 24.7

Recorded TGI (compound O=C(CCCCN1CCN(CCCCC(=O)Nc2ccccc2C#C/C=C\C#Cc2ccccc2C(F)(F)F)CC1)Nc1ccccc1C#C/C=C\C#Cc1ccccc1C(F)(F)F ): 23
